Below, each entry is listed alongside its reported z-score.
# assay_explanation: basal RPMI8226 viability, no added stimulus, profiling panel, cell-based, calcein-AM fluorescence, 48 h, PK04 Diversity Set (AID 1166);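 also: cells grown under basal conditions without added stimulus; test concentration not given here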
# assay_conditions: RPMI8226 myeloma viability, higher = more signal
Simply state the number, no unit and no words.

compound: [N-]=[N+]=Nc1ccccc1C[C@]1(C(=O)O)N=C(c2ccc(OCCCO)cc2)O[C@H]1c1ccccc1
z-score: 0.272

# evaluate next
Name the recorded z-score of the item COCC1C2CC[C@H]3C(OCc4ccc(OC)cc4)OC[C@]4(C)[C@H]3C2=C(CN4C(=O)OC(C)(C)C)[C@H](C)C1COC (some centres undefined) in your answer. -4.48

* * *

# assay_explanation: small-molecule binders of probe aLefty1, primary screen, biochemical, small-molecule microarray, 635/667 nm fluorescence (AID 1153);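 also: score merges spot fluorescence with signal-to-noise ratio from the scanned slide images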
# assay_conditions: higher = more signal
Below, each entry is listed alongside its reported composite z-score.

Some solved cases for reference:
compound: C[C@]1(C(=O)NCCN2CCOCC2)c2ccccc2C(=O)N(Cc2cc(F)cc(C(F)(F)F)c2)[C@H]1c1ccc(CO)cc1
composite z-score: 0.0892
//
compound: O=C1C2C=CC(C(O)c3cccc(O)c3)N(Nc3ccccc3)C2C(=O)N1c1ccccc1 (stereo not drawn)
composite z-score: 0.315

Name the recorded composite z-score of the item CCOC(=O)C=Cc1ccccc1O in your answer. 0.135

Name the recorded composite z-score of the item C=C(COC)C(=O)CC[C@H](OC(C)=O)c1ccc(OCCO)cc1 in your answer. -0.0984

Name the recorded composite z-score of the item COc1ccc(C#Cc2ccc3c(c2)[C@]2(C(=O)N3)[C@H](C(=O)N3CCCCCCC3)[C@H]3C(=O)O[C@H](c4ccccc4)[C@H](c4ccccc4)N3[C@@H]2c2ccc(O)cc2)cc1 in your answer. 2.04

Name the recorded composite z-score of the item CCOC(=O)C[C@H]1[C@H](OC(=O)c2cc3ccccc3oc2=O)[C@@H](NC(=O)c2ccc3ccccc3c2)c2cc(OCCCO)ccc2N1C(=O)Cc1ccc(OC)cc1 in your answer. -0.0479

Name the recorded composite z-score of the item COCCCNC(=O)[C@@]1(c2ccc([N+](=O)[O-])cc2)CC(=O)N(CC23CC4CC(CC(C4)C2)C3)[C@@H]1c1ccc(CO)cc1I in your answer. 0.082

Name the recorded composite z-score of the item CCCCNC(=O)c1ccc(C#C[Si](C(C)C)(C(C)C)C(C)C)c(OC(C)=O)c1 in your answer. -0.0518

* * *

# study_system: Follistatin-related protein 3 (Homo sapiens)
# assay_explanation: FSTL3 binders on small-molecule microarrays, primary screen, biochemical, small-molecule microarray, 635 nm fluorescence (AID 1105);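 also: score merges emission near 667 nm and signal to noise per printed spot across three slides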
# assay_conditions: FSTL3 binding, higher = more signal
Below, each entry is listed alongside its reported composite z-score.
Simply state the number, no unit and no words.

molecule: CCOC(=O)C[C@H]1[C@H](OC(=O)c2ccccc2-c2ccccc2)[C@@H](NC(=O)c2ccc3ccccc3n2)c2cc(OCCCO)ccc2N1C(=O)c1ccccc1
study_system: Follistatin-related protein 3 (Homo sapiens)
composite z-score: 0.581

molecule: CC=CC(O)C1C=CC2C(=O)NC(=O)C2N1Nc1ccccn1 (centres undefined)
study_system: Follistatin-related protein 3 (Homo sapiens)
composite z-score: 0.6

molecule: CCCCC(=C=CC[C@H](O)c1ccc(OCCO)cc1)C[C@H](O)COCc1ccccc1
study_system: Follistatin-related protein 3 (Homo sapiens)
composite z-score: -0.603

# evaluate next
Param request: composite z-score | system Follistatin-related protein 3 (Homo sapiens) | item CC(C)c1ccc(NN2C(C(O)Cc3ccccc3)C=CC3C(=O)N(c4ccccc4)C(=O)C32)cc1 (centres undefined) 1.26
